SYSTEM UNDER TEST: human dopamine D4 (Homo sapiens, UniProt P21917)
Construct: purchased BioSignal, Inc. (Montreal, Canada)
Sequence (P21917 1-419): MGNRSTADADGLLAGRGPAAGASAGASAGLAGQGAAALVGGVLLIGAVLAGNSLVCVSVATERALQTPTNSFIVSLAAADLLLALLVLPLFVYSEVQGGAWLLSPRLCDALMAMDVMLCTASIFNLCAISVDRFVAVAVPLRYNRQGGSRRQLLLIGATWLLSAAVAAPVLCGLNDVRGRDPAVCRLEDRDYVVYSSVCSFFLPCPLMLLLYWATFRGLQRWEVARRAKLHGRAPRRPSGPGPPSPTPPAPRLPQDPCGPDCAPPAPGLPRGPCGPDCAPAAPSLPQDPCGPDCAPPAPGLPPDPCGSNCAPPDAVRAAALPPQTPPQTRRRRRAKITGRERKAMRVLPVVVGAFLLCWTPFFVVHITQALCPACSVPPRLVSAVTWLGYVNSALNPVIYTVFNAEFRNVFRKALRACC
EXPERIMENTAL DETAILS: Radioligand binding, dopamine D4 receptor
TEST CONDITIONS: Table 9; read-out: hD4 Ki
QUANTITY: pKi
One number for each entry, as −log10 of the molar value.

Guide cases for pKi, answers given:
SMILES NOTATION	SYSTEM UNDER TEST	pKi
Cc1ccc(Nc2cc(N(C)C)nc(N(C)CCc3c[nH]c4ccccc34)n2)cc1	human dopamine D4 (Homo sapiens, UniProt P21917)	6.30
CN(CCc1c[nH]c2ccccc12)c1nc(Nc2ccc(F)c(F)c2)cc(N2CCCCC2)n1	human dopamine D4 (Homo sapiens, UniProt P21917)	4.88

Give me pKi for each of these compounds, listed below.
1. CN(C)c1cc(Nc2ccc(Cl)c(Cl)c2)nc(Nc2ccccc2)n1
2. Cc1ccc(Nc2cc(N3CCCCC3)nc(N3CCN(c4ncccc4C(F)(F)F)CC3)n2)cc1
3. COc1cccc(Nc2cc(N3CCCCC3)nc(N(C)CCc3c[nH]c4ccccc34)n2)c1
4. Cc1ccc(Nc2cc(N3CCCCC3)nc(N(C)CCc3c[nH]c4ccccc34)n2)cc1
5. Cc1ccc(Nc2cc(N3CCCCC3)nc(N(C)CCc3ccccc3)n2)cc1

1. 4.31
2. 4.73
3. 4.65
4. 5.32
5. 4.93

* * *

SYSTEM UNDER TEST: human histamine H1 receptor (Homo sapiens, UniProt P35367)
Sequence (P35367 whole entry): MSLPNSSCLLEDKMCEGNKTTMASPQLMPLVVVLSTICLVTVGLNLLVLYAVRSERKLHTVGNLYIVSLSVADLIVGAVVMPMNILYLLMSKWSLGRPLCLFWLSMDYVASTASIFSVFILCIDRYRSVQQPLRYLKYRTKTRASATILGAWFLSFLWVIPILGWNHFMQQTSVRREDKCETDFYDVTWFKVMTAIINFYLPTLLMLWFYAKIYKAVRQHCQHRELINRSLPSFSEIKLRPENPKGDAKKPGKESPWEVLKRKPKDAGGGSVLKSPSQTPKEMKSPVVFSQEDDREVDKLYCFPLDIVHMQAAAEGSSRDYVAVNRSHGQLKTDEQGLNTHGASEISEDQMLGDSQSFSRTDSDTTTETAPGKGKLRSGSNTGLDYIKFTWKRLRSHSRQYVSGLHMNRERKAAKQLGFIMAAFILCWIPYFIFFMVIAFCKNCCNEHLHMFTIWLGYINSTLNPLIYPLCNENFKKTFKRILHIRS
QUANTITY: pKi
Numbers only, as −log10 of the molar value.

# compound CN(C)c1cc(Nc2ccc(Cl)c(Cl)c2)nc(Nc2ccccc2)n1 [Example 60] ; its pKi = 4.40

* * *

SYSTEM UNDER TEST: human 5HT1E (Homo sapiens, UniProt P28566)
Construct: expressed in transfected cells
Sequence (P28566 whole entry): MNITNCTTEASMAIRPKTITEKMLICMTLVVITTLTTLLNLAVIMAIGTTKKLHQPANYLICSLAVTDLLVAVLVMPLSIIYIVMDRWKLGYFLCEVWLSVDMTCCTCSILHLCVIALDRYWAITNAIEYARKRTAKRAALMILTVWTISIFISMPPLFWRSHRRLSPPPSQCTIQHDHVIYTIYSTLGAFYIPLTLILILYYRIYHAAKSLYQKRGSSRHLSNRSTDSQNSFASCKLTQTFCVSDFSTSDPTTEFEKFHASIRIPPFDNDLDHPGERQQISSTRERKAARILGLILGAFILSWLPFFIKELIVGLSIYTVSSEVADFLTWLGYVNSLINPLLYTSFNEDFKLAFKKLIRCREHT
EXPERIMENTAL DETAILS: Radioligand binding, 5HT1E receptor ([3H]-serotonin)
TEST CONDITIONS: Table 7; read-out: h5HT1E Ki
pKi: −log10 of the molar value.
Decide using pKi: a value greater than or equal to 5 is True, a smaller one is False.

COMPOUND	ASSIGNED LABEL
O=C1C(=Nc2ccc(Br)cc2)c2ccccc2N1c1ccccc1 [Example 98]	False
O=C1C(=Nc2cccc(Cl)c2)c2ccccc2N1c1ccccc1 [Example 94]	False
O=C1C(=Nc2ccc(Cl)cc2)c2ccccc2N1c1ccccc1 [Example 97]	False
O=C1C(=Nc2ccc(C(F)(F)F)cc2)c2ccccc2N1c1ccccc1 [Example 95]	False
Cc1ccc(Nc2cc(N3CCCCC3)nc(N3CCN(c4ncccc4C(F)(F)F)CC3)n2)cc1 [Example 34]	False
Cc1ccc(Nc2cc(N(C)C)nc(N(C)CCc3c[nH]c4ccccc34)n2)cc1 [Example 77]	True

Would you say CN(C)c1cc(Nc2ccc(Cl)c(Cl)c2)nc(Nc2ccccc2)n1 [Example 60] shows pKi at minimum 5?
True

Would you say COc1cccc(Nc2cc(N3CCCCC3)nc(N(C)CCc3c[nH]c4ccccc34)n2)c1 [Example 17] shows pKi at minimum 5?
False

* * *

SYSTEM UNDER TEST: human GAL3 receptor (Homo sapiens, UniProt O60755)
Construct: expressed in transfected cells
Sequence (O60755 whole entry): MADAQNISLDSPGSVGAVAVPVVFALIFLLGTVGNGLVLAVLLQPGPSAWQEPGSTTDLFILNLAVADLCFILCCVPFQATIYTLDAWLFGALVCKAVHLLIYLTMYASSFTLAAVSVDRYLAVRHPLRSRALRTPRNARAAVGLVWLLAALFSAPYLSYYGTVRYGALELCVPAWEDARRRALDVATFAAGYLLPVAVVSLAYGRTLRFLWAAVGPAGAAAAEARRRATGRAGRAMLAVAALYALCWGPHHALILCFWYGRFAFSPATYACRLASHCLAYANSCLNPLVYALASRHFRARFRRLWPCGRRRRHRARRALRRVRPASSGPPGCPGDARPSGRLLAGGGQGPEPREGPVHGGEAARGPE
EXPERIMENTAL DETAILS: Radioligand binding at cloned human GAL3 receptor
TEST CONDITIONS: indolones, cloned human receptor; read-out: Ki GalR3
Definition: the class of an entry is the range in zone 1 (below 60 nM), zone 2 (60 nM to below 200 nM), zone 3 (200 nM or more) that contains its Ki.

MOLECULE	ASSIGNED LABEL
O=C1C(=Nc2cccc(C(F)(F)F)c2)c2ccccc2N1Cc1csc2ccc(Cl)cc12	zone 3

Record "O=C1/C(=N\c2ccc(Br)cc2)c2ccccc2N1c1ccsc1" — which class?
zone 1

Record O=C1C(=Nc2ccc(Cl)nc2)c2ccccc2N1c1ccccc1 (mixture of isomers) — which class?
zone 2

Record "C=CCN1C(=O)C(=Nc2cc(Cl)cc(Cl)c2)c2ccccc21" — which class?
zone 2

Record "Cc1noc(C)c1CN1C(=O)/C(=N\c2ccc(Cl)c(Cl)c2)c2ccccc21" — which class?
zone 1

Record "O=C1/C(=N\c2ccc(Cl)c(Cl)c2)c2ccccc2N1c1ccsc1" — which class?
zone 1

Record "Cc1cc(/N=C2\C(=O)N(c3ccsc3)c3ccccc32)ccc1Cl" — which class?
zone 1

Record "O=C1/C(=N\c2ccc(-c3ccsc3)cc2)c2ccccc2N1c1ccccc1" — which class?
zone 3

Record "COc1ccc2c(c1)N(c1ccccc1)C(=O)/C2=N\c1cccc(Cl)c1" — which class?
zone 2

Record "O=C1/C(=N\c2ccc(I)cc2)c2ccccc2N1c1ccccc1" — which class?
zone 1

Record "COc1ccc(/N=C2\C(=O)N(c3ccccc3)c3ccccc32)c(OC)c1" — which class?
zone 3

Record "O=C1/C(=N\c2cccc(C(F)(F)F)c2)c2ccccc2N1c1ccc(O)cc1" — which class?
zone 2

Record "O=C1C(=Nc2ccc(F)cc2)c2ccccc2N1c1ccccc1" — which class?
zone 3

Record "CC(C)c1cccc(/N=C2\C(=O)N(c3ccsc3)c3ccccc32)c1" — which class?
zone 3

* * *

SYSTEM UNDER TEST: human GAL3 receptor (Homo sapiens)
Construct: expressed in transfected cells
EXPERIMENTAL DETAILS: Radioligand binding at cloned human GAL3 receptor
TEST CONDITIONS: pyrimidines, cloned human receptor; read-out: Ki GalR3
Provide the reported Ki of each item.
Answers are plain numbers, in nM.

COMPOUND	Ki / nM
COc1cccc(Nc2cc(N(C)C)nc(N3CCN(CC4CCCCC4)CC3)n2)c1 [Example 145]	155
CN(C)c1cc(Nc2ccc(SC(F)(F)F)c(Cl)c2)nc(N2CCN(c3ccccn3)CC2)n1 [Example 134]	25
COc1cccc(CN2CCN(c3nc(Nc4ccc(C)cc4)cc(N(C)C)n3)CC2)c1 [Example 142]	28
Cc1ccc(Nc2cc(N(C)C)nc(NCCc3cccs3)n2)cc1 [Example 237]	404
Cc1ccc(Nc2cc(N(C)C)nc(N3CCC(O)(c4ccccc4)CC3)n2)cc1 [Example 80]	615
CN(C)c1cc(Nc2cccc3c2CCCC3)nc(N2CCN(c3ccccn3)CC2)n1 [Example 122]	65

Give me Ki for each of these compounds, listed below.
1. CN(C)c1cc(Nc2ccc3c(c2)CCC3)nc(N2CCN(c3cnccn3)CC2)n1 [Example 180]
2. COc1cccc(Nc2cc(N(C)C)nc(N3CCN(Cc4ccccc4OC)CC3)n2)c1 [Example 166]
3. CN(C)c1cc(Nc2ccc(Cl)cc2)nc(Nc2ccccc2)n1 [Example 58]
4. COc1ccc(C(F)(F)F)cc1Nc1cc(N(C)C)nc(N2CCN(Cc3ccccc3)CC2)n1 [Example 226]
5. Cc1ccc(Nc2cc(N3CCCCC3)nc(N3CCO[C@@H](c4ccccc4)[C@H]3C)n2)cc1 [Example 48]
6. Cc1ccc(Nc2cc(N(C)C)nc(N3CCc4ccccc43)n2)cc1 [Example 75]
7. Cc1ccc(Nc2cc(N3CCCCC3)nc(N3CCN(c4ncccn4)CC3)n2)cc1 [Example 37]

151
263
783
72
120
144
343

* * *

Provide the reported selectivity ratio hα1D of each item.
SYSTEM UNDER TEST: human α1D adrenergic receptor (Homo sapiens, UniProt P25100)
Construct: expressed in transfected cells
Sequence (P25100 whole entry): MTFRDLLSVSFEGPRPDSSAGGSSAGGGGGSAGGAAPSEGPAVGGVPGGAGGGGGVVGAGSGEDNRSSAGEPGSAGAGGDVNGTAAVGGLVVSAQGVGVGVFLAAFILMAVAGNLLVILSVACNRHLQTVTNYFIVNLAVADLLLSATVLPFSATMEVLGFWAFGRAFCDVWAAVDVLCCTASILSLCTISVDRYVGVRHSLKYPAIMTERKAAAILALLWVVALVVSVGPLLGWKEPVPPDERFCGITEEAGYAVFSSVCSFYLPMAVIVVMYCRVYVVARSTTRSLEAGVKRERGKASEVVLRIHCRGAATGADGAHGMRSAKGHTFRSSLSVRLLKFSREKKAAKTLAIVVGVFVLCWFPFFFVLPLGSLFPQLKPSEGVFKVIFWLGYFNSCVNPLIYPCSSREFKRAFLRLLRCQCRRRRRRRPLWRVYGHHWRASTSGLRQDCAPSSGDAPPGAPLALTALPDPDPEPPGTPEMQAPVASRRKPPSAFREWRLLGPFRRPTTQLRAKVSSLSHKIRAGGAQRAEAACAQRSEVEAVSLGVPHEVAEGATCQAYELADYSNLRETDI
EXPERIMENTAL DETAILS: Radioligand binding, α1D adrenergic receptor
TEST CONDITIONS: Table 10; Ki hα1D divided by Ki hGAL3
Give bare numbers.

Guide cases for selectivity ratio hα1D, answers given:
COMPOUND	selectivity ratio hα1D
Cc1ccc(Nc2cc(N3CCCCC3)nc(N(C)CCc3ccccc3)n2)cc1 [Example 22]	13
CN(CCc1c[nH]c2ccccc12)c1nc(Nc2ccc(F)c(F)c2)cc(N2CCCCC2)n1 [Example 15]	7
Cc1ccc(Nc2cc(N(C)C)nc(N(C)CCc3c[nH]c4ccccc34)n2)cc1 [Example 77]	3
COc1cccc(Nc2cc(N3CCCCC3)nc(N(C)CCc3c[nH]c4ccccc34)n2)c1 [Example 17]	3
Cc1ccc(Nc2cc(N3CCCCC3)nc(N(C)CCc3c[nH]c4ccccc34)n2)cc1 [Example 11]	3

Here is another compound to look at.
# compound COC[C@@H]1[C@@H](c2ccccc2)OCCN1c1nc(Nc2ccc(C)cc2)cc(N2CCCCC2)n1 [Example 49] ; its selectivity ratio hα1D = 3
